biological target: T1, human APC-PPACK (active site-blocked APC) (human, UniProt P04070 43-461, active site bound by the tripeptide inhibitor Phe-Pro-Arg-chloromethylketone (PPACK)); assay: ELISA
T1 construct: Bought (Haematologic Technologies)
T1 sequence (P04070 other isoform, or with tags, fused parts or gaps): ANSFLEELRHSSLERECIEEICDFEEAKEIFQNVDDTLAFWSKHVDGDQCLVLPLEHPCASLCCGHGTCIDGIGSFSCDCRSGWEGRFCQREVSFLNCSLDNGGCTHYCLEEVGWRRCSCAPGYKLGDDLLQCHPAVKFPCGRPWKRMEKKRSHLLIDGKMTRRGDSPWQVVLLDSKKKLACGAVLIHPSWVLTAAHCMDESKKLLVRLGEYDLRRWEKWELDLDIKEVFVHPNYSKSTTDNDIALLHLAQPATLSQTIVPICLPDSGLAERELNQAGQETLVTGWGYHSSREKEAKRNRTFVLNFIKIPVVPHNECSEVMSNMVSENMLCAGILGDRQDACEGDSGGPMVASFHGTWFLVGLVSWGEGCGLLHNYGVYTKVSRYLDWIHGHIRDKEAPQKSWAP

- Binder: "SR16983-R2-P2-D01 (VHH) VHH: QLQLVESGGGLVQAGGSLRLSCVASGRTFSTYAMGWFRQAPGKEREFVGAIRWDGGSTNYANSVKGRFTISRDNAKNTVYLQVNSLKPEDTAVYYCAARASINYNYANWPYWGRGTQVTVSS"
  binding result: "binds"
- Binder: "SR16983-R3-P3-F01 (VHH) VHH: EVQLVESGGGLVQAGDSLRLSCARSGLTASTYAMAWFRQAPGKEREFVSVIDWKGDTTYANSVKGRFTISRDNGKNTVYLQMNSLQPEDTALYYCAARGSPAYVARLYAYWGRGTQVTVSS"
  binding result: "binds"
- Binder: "SR16983-R3-P3-E04 (VHH) VHH: QVQLVESGGGLVQAGGSLRLSCAASGRTFGSYVMGWFRQAPGKEREFVAAASRSTGNTVYPDSVKGRFTISRDDAKNTLYLQMNSLKPEDTAVYYCAARASINYNYANWPYWGQGTQVTVSS"
  binding result: "binds"
- Binder: "SR16983-R2-P2-D08 (VHH) VHH: QLQLVESGGGLVQAGDSLRLSCALSGLAASTYAMAWFRQAPGKEREFVSVIDWKGDSTTANSVKGRFTISRDHGKNTVYLQMNSLQPEDTALYYCAARGSPGYVAKLYAHWGRGTQVTVSS"
  binding result: "binds"
